Assay: growth inhibitors of E. coli tolC mutant, primary screen, strain BW25113 ΔtolC::kan, 384-well (AID 573);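 note: growth measured after 20 h incubation at 37 °C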
Settings: OD615, hits give high values, screened at 10 µM (by protocol)
The campaign covered roughly 65,000 compounds. About 1,400 (2.2%) were called active. The sample holds actives, similar compounds and a random draw of the others, so the mix is not that of the screen.
ENDPOINT_NAME: growth inhibition (%)
The figure you give is taken to be in %; do not add the unit.

Solved cases (4 shown):
CCCSc1nc2c(c(=O)[nH]c(=O)n2C)n1CCc1ccccc1: 5.24
CCCCc1nc2c(=O)[nH]c3ccccc3c2o1: -2.92
CCCCCn1c(SCCC(C)C)nc2c1c(=O)[nH]c(=O)n2C: 64.3
COc1ccccc1Nc1ncnc2c1oc1ccccc12: -1.75

[in] Reported growth inhibition, compound "COC(=O)c1cc(C(=O)CSc2nc(C)cc(C)n2)ccc1O" : ____
[out] 68

[in] Form field: reported growth inhibition of "COc1cccc(-c2nnc(NC(=O)c3ccc(S(=O)(=O)N(CC(C)C)CC(C)C)cc3)o2)c1"
[out] 98.8

[in] Return reported growth inhibition; argument: "CCOCCc1c(O)nc(SCC(=O)NCc2ccco2)[nH]c1=O"
[out] -0.82

[in] Please give the measured growth inhibition for this compound: CCCC(C(=O)N1CCOCC1)N1C(=O)C2C3C=CC(C3)C2C1=O (stereo unspecified)
[out] -13.1

[in] Bench note: what growth inhibition did "COc1cccc(NC(=O)CN(C)S(=O)(=O)c2ccc(C)cc2)c1" show?
[out] 13.3

[in] Return reported growth inhibition; argument: "CCN(CC)C(=O)CSc1nnc(-c2cccc(OC)c2)o1"
[out] -2.54

[in] I would be grateful if you could share the reported growth inhibition for COCC(C)n1c(SCc2ccc(C(=O)OC)o2)nc2ccccc2c1=O (stereo unspecified) .
[out] 33.1

----------
Experiment: growth inhibitors of E. coli tolC mutant, primary screen, strain BW25113 ΔtolC::kan, 384-well (AID 573);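 note: growth measured after 20 h incubation at 37 °C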
Conditions: OD615, screened at 10 µM (by protocol)
Screen size: about 65,000 compounds; about 1,400 (2.2%) were called active.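 The calls were made as follows: active = growth inhibition at or above a cutoff equal to the mean over every tested compound plus 3 SD (cut at about 60% in these data); inactive = the rest.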 For the sample, actives were picked, then their nearest neighbours and some compounds at random.
In this exercise, the only acceptable responses are true = active, false = inactive

COc1ncnc2sc3c(c12)CCCC3: false

[in] Which outcome did this test record for the compound "Clc1cccc(-c2nc3nc4ccccc4nc3n2Cc2ccco2)c1" ?
[out] true

[in] # outcome recorded in this test, key = "CC(C)C(=O)N1CCN(c2nc(-c3ccccc3)c3c(c2C#N)CC(C)(C)OC3)CC1"
[out] false

[in] Recorded call for "COc1cccc(N(CC(=O)NC2CCCC2)C(=O)Cn2nnc(-c3ccc(C)cc3)n2)c1" ?
[out] false

----------
Below, each entry is listed with its recorded growth inhibition.
Test: growth inhibitors of E. coli tolC mutant, primary screen, strain BW25113 ΔtolC::kan, 384-well (AID 573);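 note: growth measured after 20 h incubation at 37 °C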
Conditions: OD615, hits give high values, screened at 10 µM (by protocol)
In all, about 65,000 compounds went through this assay and about 1,400 (2.2%) were called active. What follows is part of a selection rich in actives, with near analogues and random picks from the rest.
Express it in %; write the number only.

The examples below pair each entry with its known result.
CCOc1ccccc1-n1c(SCC(=O)NCc2ccco2)nnc1-c1ccncc1: -11.1
COc1cc2ccccc2cc1C(=O)Nc1ccc(S(=O)(=O)Nc2cc(C)on2)cc1: 78.6
Cc1ncc(CC(=O)n2cc(C(=O)c3cc(Cl)ccc3O)cn2)s1: 5.26

[in] # input molecule: "Cc1cc(NS(=O)(=O)c2ccccc2)no1" ; wanted: its growth inhibition
[out] -26.8

[in] // returns reported growth inhibition for input "C1=C(N2CCOCC2)/C(=C/c2nc3ccccc3[nH]2)CC1"
[out] -16.7

[in] Please give the measured growth inhibition for this molecule: CC1(N2CCOCC2)CC2(O)C(=[N+]1[O-])CCc1nonc12 (stereo unspecified)
[out] -7.92
